Where do the numbers come from? From patent US20100069297A1.

System: TLR4 signaling (LPS-induced STAT-1 phosphorylation)
test name: LPS-induced phosphorylation of STAT-1, Western blot
Type: cell-based, mouse
condition summary: 40 μM BP
outcome measure: inhibition of LPS-induced Tyr701 phosphorylation of STAT-1

monomer sequence: RQIKIWFQNRRMKWKKIVFAEMPCGRLHLQ [TRAM-BP]
reported value: strongly inhibited

monomer sequence: RQIKIWFONRRMKWKKFCEEFQVPGRGELH (RQIKIWFQNRRMKWKKFCEEFQVPGRGELH; TRIF blocking peptide) [TRIF-BP]
reported value: strongly inhibited
